Assay: pH of excipient solutions and of crushed EKB-569 tablet slurries
Assay type: physicochemical
Details: 5% solution/suspension of basic excipient
Source text: The data in Table 3 supported testing improved stability of a pharmaceutical composition by lowering the pH of the pharmaceutical composition. […]
measurement.name: pH at 5% excipient, Excipient Solution
One number for each entry.

>  <compound>
O=C([O-])CN(CCN(CC(=O)[O-])CC(=O)[O-])CC(=O)[O-].[Na+].[Na+].[Na+].[Na+] [EDTA, tetra sodium]

>  <value>
10.75

$$$$

State recorded pH at 5% excipient, Excipient Solution for all listed compounds.
1. O=C([O-])[O-].[Ca+2] [Calcium carbonate]
2. N=C(N)NCCC[C@H](N)C(=O)O [Arginine]
3. O=C([O-])O.[Na+] [Sodium bicarbonate]
4. NC(CO)(CO)CO [Tromethamine]
5. O=C([O-])[O-].[Na+].[Na+] [Sodium carbonate]

1: 9.12; 2: 11.23; 3: 8.18; 4: 10.87; 5: 11.5

* * *

Test: pH of excipient solutions and of crushed EKB-569 tablet slurries
Format: physicochemical
Conditions: 0.1% solution/suspension of basic excipient
Text: The data in Table 3 supported testing improved stability of a pharmaceutical composition by lowering the pH of the pharmaceutical composition. […]
Give measured pH at 0.1% excipient, Excipient Solution for each item. Keep answers brief.
Numbers only.

Hey, quick one: what's pH at 0.1% excipient, Excipient Solution for each of these?
1. N=C(N)NCCC[C@H](N)C(=O)O
2. O=C([O-])O.[Na+] [Sodium bicarbonate]
3. O=C([O-])[O-].[Na+].[Na+] [Sodium carbonate]
4. O=C([O-])CN(CCN(CC(=O)[O-])CC(=O)[O-])CC(=O)[O-].[Na+].[Na+].[Na+].[Na+] [EDTA, tetra sodium]

[10.18, 8.69, 10.99, 10.55]

Provide the reported pH at 0.1% excipient, Excipient Solution of each entry below, same order.
1. O=C([O-])[O-].[Ca+2] [Calcium carbonate]
2. NC(CO)(CO)CO

[8.95, 9.98]

* * *

Assay: pH of excipient solutions and of crushed EKB-569 tablet slurries
Format: physicochemical
Conditions: 1% solution/suspension of basic excipient
measurement.name: pH at 1% excipient, Excipient Solution
Numbers only.

Past entries and their recorded results:
>  <compound>
O=C([O-])[O-].[Na+].[Na+] [Sodium carbonate]

>  <value>
11.31

$$$$
>  <compound>
N=C(N)NCCC[C@H](N)C(=O)O

>  <value>
10.91

$$$$
>  <compound>
O=C([O-])[O-].[Ca+2] [Calcium carbonate]

>  <value>
9.02

$$$$
>  <compound>
O=C([O-])CN(CCN(CC(=O)[O-])CC(=O)[O-])CC(=O)[O-].[Na+].[Na+].[Na+].[Na+] [EDTA, tetra sodium]

>  <value>
10.94

$$$$
>  <compound>
O=C([O-])O.[Na+] [Sodium bicarbonate]

>  <value>
8.34

$$$$

--- query ---
# pH at 1% excipient, Excipient Solution lookup, item NC(CO)(CO)CO
10.51

* * *

Experiment: Solid state stability for EKB-569 drug substance at 56° C./75% RH
Assay type: physicochemical
Conditions: drug substance, 56° C./75% RH, Initial
measurement.name: Total impurities (%)
Answers are plain numbers, in %.

Param item = CCOc1cc2ncc(C#N)c(Nc3ccc(F)c(Cl)c3)c2cc1NC(=O)C=CCN(C)C ; retrieve measured Total impurities.
0.78
